The reported numbers originate from paper PMC11514473.

# subjectOfTest: T1, 285bZIP R302A (human, UniProt P16220-1 285-339, C300S;C310S;C337S;R302A)
# T1 sequence: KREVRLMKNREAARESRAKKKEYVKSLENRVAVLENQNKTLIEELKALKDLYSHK
# procedureDetails: stopped-flow fluorescence (koff/kon); 10 mM Mg2+; 10 mM MES pH 6.5, 150 mM NaCl, 10 mM MgCl2, 0.05% Tween-20, 25 C; NMR: 10 mM Tris-d11, 150 mM NaCl, 10 mM MgCl2, 1 mM NaN3, 5% D2O (NOE at 25 C)
# experimentalSetup: protein: recombinant; tags: extra N-terminal Gly; chain copies: 2; label: 5' Alexa Fluor 488; hairpin (self-annealing, 11 bp stem, CCCC loop)
pKd: −log10 of the molar value.
metricName: pKd

INSERT INTO assay_data (binder, metricname, val) VALUES
  ('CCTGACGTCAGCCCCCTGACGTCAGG (structured_DNA) [AlexaFluor488-CREh]', 'pKd', 7.86);
